Tested on: Mycobacterium avium
Reported Conditions: 104
Reported MIC values for the following molecules.
Numbers only here, please. The scale is µg/mL.

Exercise: Requested read-out MIC, target or system Mycobacterium avium, entry CSc1ccc2c(c1)N(CCC1CCCCN1C)c1ccccc1S2 (stereo not given)
Key: 4

Exercise: Requested read-out MIC, target or system Mycobacterium avium, entry `CCCOc1ccc(-c2cn(CCN3CCCCCC3)c3ccccc3c2=O)cc1`
Key: 4

Exercise: Requested read-out MIC, target or system Mycobacterium avium, entry `CN(C)CCCN1c2ccccc2Sc2ccc(Cl)cc21`
Key: 1

Exercise: Requested read-out MIC, target or system Mycobacterium avium, entry `CCCOc1ccc(-c2cn(CCN(CC)CC)c3ccccc3c2=O)cc1`
Key: 4

---

System: Mycobacterium avium
Reported Conditions: 104 mc'2 4
Reported MIC values for the following compounds.
Numbers only here, please. The scale is µg/mL.

Exercise: Give the measured MIC of CSc1ccc2c(c1)N(CCC1CCCCN1C)c1ccccc1S2 (stereo not given) [THIORIDAZINE] .
Key: 0.25

Exercise: Give the measured MIC of CN(C)CCCN1c2ccccc2Sc2ccc(Cl)cc21 [CHLORPROMAZINE] .
Key: 1

Exercise: Give the measured MIC of `CCCOc1ccc(-c2cn(CCN(CC)CC)c3ccccc3c2=O)cc1` .
Key: 4

---

Tested on: Mycobacterium avium
Reported Conditions: isolate MAV3
Labelling field: enter 1 if recorded MIC is less than 20 µg/mL. Enter -1 if it equals or exceeds that cut-off.

Observe how each entry below is paired with its result.
CCCOc1ccc(-c2cn(CCN3CCCCCC3)c3ccccc3c2=O)cc1 : 1
CN(C)CCCN1c2ccccc2Sc2ccc(Cl)cc21 : 1
CSc1ccc2c(c1)N(CCC1CCCCN1C)c1ccccc1S2 (stereo not given) : -1
CCCOc1ccc(-c2cn(CCN3CCCCC3)c3ccccc3c2=O)cc1 : 1

Exercise: For `CCCOc1ccc(-c2cn(CCN(CC)CC)c3ccccc3c2=O)cc1` , is the recorded MIC below the cut-off of 20 µg/mL?
Key: -1

---

Reported MIC values for the following molecules.
Test system: Mycobacterium avium
Reported Conditions: isolate MAV1
Numbers only here, please. The scale is µg/mL.

Exercise: Requested read-out MIC, target or system Mycobacterium avium, entry `CCCOc1ccc(-c2cn(CCN(CC)CC)c3ccccc3c2=O)cc1`
Key: 32

Exercise: Requested read-out MIC, target or system Mycobacterium avium, entry CSc1ccc2c(c1)N(CCC1CCCCN1C)c1ccccc1S2 (stereo not given)
Key: 16

Exercise: Requested read-out MIC, target or system Mycobacterium avium, entry `CN(C)CCCN1c2ccccc2Sc2ccc(Cl)cc21`
Key: 32

---

Tested on: Mycobacterium avium
Reported Conditions: 104 mc'2 4
Experimental Readout: MIC

CSc1ccc2c(c1)N(CCC1CCCCN1C)c1ccccc1S2 (stereo not given) [THIORIDAZINE] : 0.78 µg/mL
CN(C)CCCN1c2ccccc2Sc2ccc(Cl)cc21 [CHLORPROMAZINE] : 0.39 µg/mL
CCCOc1ccc(-c2cn(CCN3CCCCCC3)c3ccccc3c2=O)cc1 : < 0.195 µg/mL
CCCOc1ccc(-c2cn(CCN3CCCCC3)c3ccccc3c2=O)cc1 : < 0.195 µg/mL

Exercise: Give the measured MIC of `CCCOc1ccc(-c2cn(CCN(CC)CC)c3ccccc3c2=O)cc1` .
Key: 3.12 µg/mL

---

Tested on: Mycobacterium avium
Reported Conditions: 104 mc'2 3
Experimental Readout: MIC (µg/mL)
Numbers only here, please. The scale is µg/mL.

The cases that follow already have their MIC on record.
CCCOc1ccc(-c2cn(CCN3CCCCCC3)c3ccccc3c2=O)cc1 : 128
CCCOc1ccc(-c2cn(CCN3CCCCC3)c3ccccc3c2=O)cc1 : 128

Proceeding to the next compound to report its MIC.
Exercise: Give the measured MIC of `CCCOc1ccc(-c2cn(CCN(CC)CC)c3ccccc3c2=O)cc1` .
Key: 512

---

Tested on: Mycobacterium avium
Reported Conditions: isolate MAV1
Description: Inhibition of multidrug resistance efflux pump in Mycobacterium avium isolate MAV1 assessed as potentiation of ofloxacin-induced antibacterial activity by measuring ofloxacin MIC at 1/4 MIC incubated for 3 days by MTT assay (Rvb = 4 ug/ml)
Experimental Readout: MIC
State the value, then name its unit.

The cases that follow already have their MIC on record.
CN(C)CCCN1c2ccccc2Sc2ccc(Cl)cc21 : 1 mg/L
CCCOc1ccc(-c2cn(CCN3CCCCC3)c3ccccc3c2=O)cc1 : 1 mg/L
CCCOc1ccc(-c2cn(CCN(CC)CC)c3ccccc3c2=O)cc1 : 4 mg/L
CSc1ccc2c(c1)N(CCC1CCCCN1C)c1ccccc1S2 (stereo not given) : 1 mg/L

Proceeding to the next compound to report its MIC.
Exercise: Give the measured MIC of `CCCOc1ccc(-c2cn(CCN3CCCCCC3)c3ccccc3c2=O)cc1` .
Key: 2 mg/L

---

Reported MIC values for the following compounds.
System: Mycobacterium avium
Reported Conditions: isolate MAV4

The cases that follow already have their MIC on record.
CCCOc1ccc(-c2cn(CCN(CC)CC)c3ccccc3c2=O)cc1 : 64 µg/mL
CCCOc1ccc(-c2cn(CCN3CCCCC3)c3ccccc3c2=O)cc1 : 8 µg/mL
CCCOc1ccc(-c2cn(CCN3CCCCCC3)c3ccccc3c2=O)cc1 : 16 µg/mL
CSc1ccc2c(c1)N(CCC1CCCCN1C)c1ccccc1S2 (stereo not given) : 128 µg/mL

Proceeding to the next compound to report its MIC.
Exercise: Give the measured MIC of `CN(C)CCCN1c2ccccc2Sc2ccc(Cl)cc21` .
Key: 128 µg/mL

---

Test system: Mycobacterium avium
Reported Conditions: 104 mc'2 4
Reported MIC values for the following molecules.

The cases that follow already have their MIC on record.
CCCOc1ccc(-c2cn(CCN(CC)CC)c3ccccc3c2=O)cc1 : > 512 µg/mL
CSc1ccc2c(c1)N(CCC1CCCCN1C)c1ccccc1S2 (stereo not drawn) : > 512 µg/mL

Proceeding to the next molecule to report its MIC.
Exercise: Give the measured MIC of `CN(C)CCCN1c2ccccc2Sc2ccc(Cl)cc21` .
Key: > 512 µg/mL

---

Test system: Mycobacterium avium
Reported Conditions: 104
Experimental Readout: MIC

The cases that follow already have their MIC on record.
CCCOc1ccc(-c2cn(CCN3CCCCCC3)c3ccccc3c2=O)cc1 : < 4 µg/mL
CCCOc1ccc(-c2cn(CCN3CCCCC3)c3ccccc3c2=O)cc1 : < 0.125 µg/mL

Proceeding to the next molecule to report its MIC.
Exercise: Give the measured MIC of CSc1ccc2c(c1)N(CCC1CCCCN1C)c1ccccc1S2 (stereo not drawn) .
Key: 32 µg/mL

---

Tested on: Mycobacterium avium
Reported Conditions: in vivo, 72 h
Description: Antimycobacterial activity against Mycobacterium avium 104 mc'2 4 assessed as reduction in bacterial viability incubated for 3 days by MTT assay
Reported MIC values for the following compounds.

The cases that follow already have their MIC on record.
CC[C@H]1OC(=O)[C@H](C)[C@@H](O[C@H]2C[C@@](C)(OC)[C@@H](O)[C@H](C)O2)[C@H](C)[C@@H](O[C@@H]2O[C@H](C)C[C@H](N(C)C)[C@H]2O)[C@](C)(O)C[C@@H](C)CN(C)[C@H](C)[C@@H](O)[C@]1(C)O [AZITHROMYCIN] : > 512 µg/mL
CCCOc1ccc(-c2cn(CCN3CCNCC3)c3ccccc3c2=O)cc1 : > 256 µg/mL
COc1ccc(-c2coc3cc(O)cc(O)c3c2=O)cc1 [BIOCHANIN] : > 64 µg/mL
CCCOc1ccc(-c2cn(CCCN(C)C)c3ccccc3c2=O)cc1 : > 256 µg/mL
CC[C@H]1OC(=O)[C@H](C)[C@@H](O[C@H]2C[C@@](C)(OC)[C@@H](O)[C@H](C)O2)[C@H](C)[C@@H](O[C@@H]2O[C@H](C)C[C@H](N(C)C)[C@H]2O)[C@](C)(OC)C[C@@H](C)C(=O)[C@H](C)[C@@H](O)[C@]1(C)O [CLARITHROMYCIN] : > 512 µg/mL

Proceeding to the next compound to report its MIC.
Exercise: Give the measured MIC of CC[C@H]1OC(=O)[C@H](C)[C@@H](O[C@H]2C[C@@](C)(OC)[C@@H](O)[C@H](C)O2)[C@H](C)[C@@H](O[C@@H]2O[C@H](C)C[C@H](N(C)C)[C@H]2O)[C@](C)(O)C[C@@H](C)C(=O)[C@H](C)[C@@H](O)[C@]1(C)O [ERYTHROMYCIN] .
Key: > 512 µg/mL

---

Tested on: Mycobacterium avium
Reported Conditions: in vivo, 72 h
Description: Antimycobacterial activity against Mycobacterium avium 104 mc'2 3 assessed as reduction in bacterial viability incubated for 3 days by MTT assay
Reported MIC values for the following compounds.

CCCOc1ccc(-c2cn(CCN3CCNCC3)c3ccccc3c2=O)cc1 : > 256 µg/mL

Proceeding to the next compound to report its MIC.
Exercise: Give the measured MIC of `CC[C@H]1OC(=O)[C@H](C)[C@@H](O[C@H]2C[C@@](C)(OC)[C@@H](O)[C@H](C)O2)[C@H](C)[C@@H](O[C@@H]2O[C@H](C)C[C@H](N(C)C)[C@H]2O)[C@](C)(OC)C[C@@H](C)C(=O)[C@H](C)[C@@H](O)[C@]1(C)O` .
Key: > 512 µg/mL
